Below: a set of entries, each annotated with reported relative viability.
- System: NCI-H1563
- test: relative viability (nuclei count vs DMSO), 5 days (fraction); higher = more cells survive
- condition_info: first compound 0.02 µM

| compound | measured_on | relative viability |
| --- | --- | --- |
| CC(=O)O[C@@]12CO[C@@H]1C[C@H](O)[C@@]1(C)C(=O)[C@H](O)C3=C(C)[C@@H](OC(=O)[C@H](O)[C@@H](NC(=O)OC(C)(C)C)c4ccccc4)C[C@@](O)([C@@H](OC(=O)c4ccccc4)[C@H]21)C3(C)C [Docetaxel] + N=C(N)NC(=N)NCCc1ccccc1 [Phenformin] (partner 250 µM) | NCI-H1563 | 0.479 |
| CC(=O)O[C@@]12CO[C@@H]1C[C@H](O)[C@@]1(C)C(=O)[C@H](O)C3=C(C)[C@@H](OC(=O)[C@H](O)[C@@H](NC(=O)OC(C)(C)C)c4ccccc4)C[C@@](O)([C@@H](OC(=O)c4ccccc4)[C@H]21)C3(C)C [Docetaxel] + CS(=O)(=O)CCNCc1ccc(-c2ccc3ncnc(Nc4ccc(OCc5cccc(F)c5)c(Cl)c4)c3c2)o1 [Lapatinib] (partner 2 µM) | NCI-H1563 | 0.581 |
| CC(=O)O[C@@]12CO[C@@H]1C[C@H](O)[C@@]1(C)C(=O)[C@H](O)C3=C(C)[C@@H](OC(=O)[C@H](O)[C@@H](NC(=O)OC(C)(C)C)c4ccccc4)C[C@@](O)([C@@H](OC(=O)c4ccccc4)[C@H]21)C3(C)C [Docetaxel] + CC(C)C[C@H](NC(=O)[C@H](Cc1ccccc1)NC(=O)c1cnccn1)B(O)O [Bortezomib] (partner 0.002 µM) | NCI-H1563 | 0.582 |
